# Test system: THP-1
# PROTOCOL NOTES: area under dose-response curve (cell viability) (AUC (arbitrary, % viability x log concentration)); higher = less sensitive (more viable)
# COND: 4 days
Where a name gives a salt, the structure may show the parent alone.
Exercise: for every item that follows, state its recorded area under dose-response curve.
Answer as a number with no unit attached.

Qu. // map COc1cc2ncnc(Nc3ccc(F)c(Cl)c3)c2cc1OCCCN1CCOCC1 to recorded area under dose-response curve (system: THP-1)
Ans. 679

Qu. Hello, I am looking for reported area under dose-response curve with THP-1 for NC(=O)c1ccc(-c2nc(-c3ccccn3)c(-c3ccc4c(c3)OCO4)[nH]2)cc1 . Could you help?
Ans. 796

Qu. THP-1 / area under dose-response curve / O=C(NC1CCNCC1)c1n[nH]cc1NC(=O)c1c(Cl)cccc1Cl : value?
Ans. 500

Qu. Provide value of area under dose-response curve for this record tested with THP-1: CCNC(=O)c1noc(-c2cc(C(C)C)c(O)cc2O)c1-c1ccc(CN2CCOCC2)cc1
Ans. 359

Qu. Which area under dose-response curve is reported with THP-1 for this entry: Nc1ncnc2c1c(I)cn2[C@@H]1O[C@H](CO)[C@@H](O)[C@H]1O ?
Ans. 530

Qu. Observed area under dose-response curve on THP-1 for O=C1NC(=O)/C(=C\c2ccc3nccnc3c2)S1 , please.
Ans. 679

Qu. What value of area under dose-response curve on THP-1 does O=c1c(N=Nc2ccc(S(=O)(=O)O)cc2)c(-c2ccc([N+](=O)[O-])cc2)[nH]n1-c1ccccc1 have?
Ans. 646

Qu. Record lookup: for THP-1, what area under dose-response curve belongs to CN(C)C/C=C/C(=O)Nc1cc2c(Nc3ccc(F)c(Cl)c3)ncnc2cc1O[C@H]1CCOC1 ?
Ans. 664

Qu. Query for THP-1: what area under dose-response curve does the record show for c1cc(-c2sc(-c3ccncc3)c(-c3ccncc3)c2-c2ccncc2)ccn1 ?
Ans. 735

Qu. area under dose-response curve of CC[C@]1(O)C[C@H]2CN(CCc3c([nH]c4ccccc34)[C@@](C(=O)OC)(c3cc4c(cc3OC)N(C=O)[C@H]3[C@@](O)(C(=O)OC)[C@H](OC(C)=O)[C@]5(CC)C=CCN6CC[C@]43[C@@H]65)C2)C1 [Vincristine sulfate] on THP-1?
Ans. 25.4

// data source = the supplement of paper PMC5752671
